measured target: T1, Human complement C4 protein (Millipore Sigma, Cat. 204886) (human, UniProt P0C0L4 20-675; P0C0L4 680-1446; P0C0L4 1454-1744, limits assumed, natural sulfotyrosines)
T1 construct: mature
T1 sequence (P0C0L4 20-675 limits assumed, form in doubt, chain 1 of 3): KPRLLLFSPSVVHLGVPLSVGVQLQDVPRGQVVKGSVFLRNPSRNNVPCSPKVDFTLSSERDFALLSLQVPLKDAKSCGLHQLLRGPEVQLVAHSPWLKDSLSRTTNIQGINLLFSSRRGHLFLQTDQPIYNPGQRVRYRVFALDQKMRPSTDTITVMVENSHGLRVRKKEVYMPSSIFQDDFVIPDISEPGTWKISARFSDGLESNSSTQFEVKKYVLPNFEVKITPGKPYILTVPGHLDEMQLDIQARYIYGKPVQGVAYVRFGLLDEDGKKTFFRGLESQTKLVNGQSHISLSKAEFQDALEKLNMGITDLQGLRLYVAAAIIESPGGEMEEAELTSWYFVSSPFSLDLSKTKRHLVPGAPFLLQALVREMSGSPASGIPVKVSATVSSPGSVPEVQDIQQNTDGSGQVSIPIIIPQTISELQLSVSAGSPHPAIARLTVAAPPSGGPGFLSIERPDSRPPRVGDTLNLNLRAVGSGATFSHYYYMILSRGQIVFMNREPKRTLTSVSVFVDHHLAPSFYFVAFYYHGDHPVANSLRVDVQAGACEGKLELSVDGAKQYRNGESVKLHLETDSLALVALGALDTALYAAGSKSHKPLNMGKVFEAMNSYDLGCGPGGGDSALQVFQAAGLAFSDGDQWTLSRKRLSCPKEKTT
T1 sequence (P0C0L4 680-1446 limits assumed, form in doubt, chain 2 of 3): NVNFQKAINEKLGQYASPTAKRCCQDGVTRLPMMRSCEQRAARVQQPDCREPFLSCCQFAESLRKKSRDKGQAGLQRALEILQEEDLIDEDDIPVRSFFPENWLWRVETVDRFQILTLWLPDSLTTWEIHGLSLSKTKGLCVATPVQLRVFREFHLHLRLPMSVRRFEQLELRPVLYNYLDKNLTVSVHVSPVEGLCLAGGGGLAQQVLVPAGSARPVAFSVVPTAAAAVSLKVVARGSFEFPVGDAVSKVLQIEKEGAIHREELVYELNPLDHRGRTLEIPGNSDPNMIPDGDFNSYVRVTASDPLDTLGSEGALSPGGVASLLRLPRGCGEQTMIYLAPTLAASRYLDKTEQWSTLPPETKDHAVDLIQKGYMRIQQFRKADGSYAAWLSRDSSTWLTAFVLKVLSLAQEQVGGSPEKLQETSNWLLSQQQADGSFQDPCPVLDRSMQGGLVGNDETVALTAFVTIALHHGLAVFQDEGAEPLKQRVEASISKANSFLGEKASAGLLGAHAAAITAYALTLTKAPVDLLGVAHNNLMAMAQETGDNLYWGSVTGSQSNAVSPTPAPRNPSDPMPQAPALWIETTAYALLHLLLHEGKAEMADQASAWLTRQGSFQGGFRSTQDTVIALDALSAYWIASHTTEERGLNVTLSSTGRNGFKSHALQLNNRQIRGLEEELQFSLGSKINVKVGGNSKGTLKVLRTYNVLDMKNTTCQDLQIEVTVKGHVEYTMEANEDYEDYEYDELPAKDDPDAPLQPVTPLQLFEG
T1 sequence (P0C0L4 1454-1744 limits assumed, form in doubt, chain 3 of 3): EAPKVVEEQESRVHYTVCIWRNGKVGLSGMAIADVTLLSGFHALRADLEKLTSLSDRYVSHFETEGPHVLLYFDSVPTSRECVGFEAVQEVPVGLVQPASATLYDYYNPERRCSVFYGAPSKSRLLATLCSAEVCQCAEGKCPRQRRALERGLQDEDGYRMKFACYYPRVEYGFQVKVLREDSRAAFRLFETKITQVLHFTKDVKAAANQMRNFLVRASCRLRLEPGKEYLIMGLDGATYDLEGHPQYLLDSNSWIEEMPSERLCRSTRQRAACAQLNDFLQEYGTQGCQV
procedure details: ELISA, 50 nM mAb
Description: Recombinant PSGL-1-hFc1 chimera protein consisting of PSGL-1's extracellular domain (ECD) served as a positive control. […] Primary antibody was added (25 ul per well) in duplicate at 50 nM in assay buffer (blocking buffer containing 0.05% Tween®20) into test and control (just blocked) wells and the plate incubated for 45 min at 37° C.
Consider the cut-off 0.6. If the recorded binding normalized to PSGL-1 is strictly smaller, the label is Met; if not, the label is Not met.

- 20I15 (antibody, V domains shown, From mouse immunisation; only variable domains given; also called 20115) VH: EVKLVESGGGLVQPGGSLSLSCAASGFTFTDYYMSWVRQPPGKALEWLGFIRNKANGYTTEYSASVKGRFTISRDNSQSILYLQMNALRAEDSATYYCARTYLRRGYFDVWGTGTTVTVSS VL: DIVLTQSPASLAVSLGQRATISCRASKSVSTSGYSYMHWFQQKPGQPPKLLIYLASNLESGVPARFSGSGSGTDFTLNIHPVEEEDAATYYCQHSRELPLTFGAGTKLELK: Met
- 03B01 (antibody, IgG4, V domains shown) VH: QMQLVQSGAEVKKPGASVKVSCRASGYRFSTYAISWVRQAPGQGLEWIGWISTHHGNTKYAQKFQDRVTMTADASTSIAYMELRSLRSDDTAVYYCAAAIGNYWGQGTLVTVSS VL: EIVLTQSPAILSVSPGERASLSCRASQSVSSKLAWYQQKPGQAPRLLIYGASTRATGIPPRFSGSGSGTDFTLTISSLEPEDFAVYYCQQRSNWPLTFGGGTKVEIK: Not met
- 02G01 (antibody, IgG4, V domains shown) VH: EVQLVQSGAEVKKPGASVKVSCKASGYTFTSYGISWVRQAPGQGLEWMGWISAYNGNTNYAQKLQGRVTMTTDTSTSTAYMELRSLRSDDTAVYYCARVTRLPGGGYAFDIWGQGTMVTVSL VL: QSVLTQPPSASGTPGQRITISCSGSTSNIGNKHVYWYQQFPGAAPKLLIHNTNKRPSGVPDRFSGSKSGTSASLAISGLQSDDEADYYCAAWDGSLSAWVFGGGTKLTVL: Met
- 02E06 (antibody, IgG4, V domains shown) VH: QVQLVQSGAEVKKPGASVKVSCKASGYSFTDYYMHWVRQAPGQGLEWMGWMNPNSGNTGYAQTFQGRVTMTRNTSISTAYMELSSLRSEDTAVYYCARGRRVRGTPTFEYWGQGTLVTVSS VL: QSVVTQPPSASGTPGQRVTISCSGRSSNIGSYTVNWFQHLPGTGPKLLIYGNNQRPSGVPGRFSGSKSGTSASLAISGLQSNDEATYYCAAWDDSLNGHYVFGTGTKVTVL: Not met
- 10B03 (antibody, IgG4, V domains shown) VH: EVKLLESGGDLVQPGGSLRLSCAASGLTFSNYAMSWVRQAPGKGLEWVSAISGSGDNTYYADSVKGRFTISRDNSKNTLYLQMNSLRADDTAVYFCAKRDSWGQGTLVTVSS VL: QAVLTQPPSASGTPGQRVTISCSGSTSNIGSRDVYWYQHLPGTAPKLVIYRNDQRPSGVPDRFSGSKSGTSASLAISGLRSEDDADYYCAVWDNSLRGRVFGGGTKLTVL: Not met
